- Protocol description: Cytotoxicity (CC50) in mock-infected H1-HeLa cells, XTT dye reduction
- Type: cell-based, human
- Conditions used: human, mock-infected (uninfected) H1-HeLa cells; CAV-21

# Compound, CC50 at 2 days
records = [
    ("CCOC(=O)c1ccc(OCCC2CCN(c3ccc(C)nn3)CC2)cc1 [Pirodavir, reference compound]", "> 100 µM"),
    ("CC[C@@H](C(=O)N[C@H](/C=C/C(=O)OCc1ccccc1)C[C@@H]1CCNC1=O)n1cccc(NC(=O)c2cc(C)on2)c1=O [Compound 62]", "> 10 µM"),
    ("Cc1cc(CCCOc2c(C)cc(-c3noc(C(F)(F)F)n3)cc2C)on1 [Pleconaril, reference compound]", "> 10 µM"),
    ("C#CC[C@@H](C(=O)N[C@H](/C=C/C(=O)OCc1ccccc1)C[C@@H]1CCNC1=O)n1cccc(NC(=O)c2cc(C)on2)c1=O [Compound 63]", "> 10 µM"),
]

----------
- Assayed system: Recombinant rhinovirus 3C protease, serotype 14 (Human rhinovirus 14)
- Construct: Recombinant rhinovirus 3C proteases; made in house
- Sequence (P03303 1538-1719): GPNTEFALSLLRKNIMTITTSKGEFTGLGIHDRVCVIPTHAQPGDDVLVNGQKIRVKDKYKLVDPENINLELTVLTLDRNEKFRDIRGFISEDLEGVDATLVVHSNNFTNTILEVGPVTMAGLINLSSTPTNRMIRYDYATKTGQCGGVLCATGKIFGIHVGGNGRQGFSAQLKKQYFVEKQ
- Protocol description: Inhibition of rhinovirus 3C protease (FRET assay, kobs/[I]), serotype 14
- Assay type: biochemical
- Conditions used: pH 7.6; HRV-14; read-out: kobs/[I] (3C protease inhibition activity)
Assay endpoint: kinact/KI (M⁻¹ s⁻¹)

# Test smiles, Value reported
rows = [
    ("CCOC(=O)/C=C/[C@H](C[C@@H]1CCNC1=O)NC(=O)[C@H](Cc1ccc(F)c(F)c1)n1cccc(NC(=O)c2cc(C)on2)c1=O", "1.8e+06"),
    ("Cc1cc(C(=O)Nc2cccn([C@@H](Cc3ccc(F)c(F)c3)C(=O)N[C@H](/C=C/C(=O)OC3CCCCC3)C[C@@H]3CCNC3=O)c2=O)no1", 244000),
    ("O=C1OCC/C1=C\\[C@H](C[C@@H]1CCNC1=O)NC(=O)[C@H](Cc1ccc(F)cc1)n1cccc(NC(=O)C2CCCC2)c1=O", 74000),
    ("C#CC[C@@H](C(=O)N[C@H](/C=C(\\C)C(=O)OCC)C[C@@H]1CCNC1=O)n1cccc(NC(=O)c2cc(C)on2)c1=O", 12500),
    ("CCOC(=O)/C=C/[C@H](CCC(N)=O)NC(=O)[C@H](Cc1ccc(F)c(F)c1)n1cccc(NC(=O)OCc2ccccc2)c1=O", 193000),
    ("CC[C@@H](C(=O)N[C@H](/C=C/C(=O)OC(C)(C)C)C[C@@H]1CCNC1=O)n1cccc(NC(=O)c2cc(C)on2)c1=O", 45100),
    ("CCOC(=O)/C=C/[C@H](CCC(N)=O)NC(=O)[C@H](Cc1ccccc1)n1cccc(NC(=O)C(C)(C)C)c1=O", 5040),
    ("CCOC(=O)/C=C/[C@H](C[C@@H]1CCNC1=O)NC(=O)[C@H](CC)n1cccc(NC(=O)c2cc(C)on2)c1=O", 170000),
    ("Cc1cc(C(=O)Nc2cccn([C@@H](Cc3ccc(F)cc3)C(=O)N[C@H](/C=C3\\CCOC3=O)C[C@@H]3CCNC3=O)c2=O)no1", 600000),
    ("Cc1cc(C(=O)Nc2cccn([C@@H](Cc3ccc(F)c(F)c3)C(=O)N[C@H](/C=C/C(=O)OC3CCCC3)C[C@@H]3CCNC3=O)c2=O)no1", "1.2e+06"),
    ("CCOC(=O)/C=C/[C@H](C[C@@H]1CCNC1=O)NC(=O)[C@H](Cc1ccc(F)cc1)n1cccc(NC(=O)c2cc(C)on2)c1=O", "1.25e+06"),
    ("O=C1OCC/C1=C\\[C@H](C[C@@H]1CCNC1=O)NC(=O)[C@H](Cc1ccc(F)cc1)n1cccc(NC(=O)c2cc(Cl)on2)c1=O", 385000),
    ("CCOC(=O)/C=C\\[C@H](CCC(N)=O)NC(=O)[C@H](Cc1ccccc1)n1cccc(NC(=O)c2cc(C)on2)c1=O", 329000),
    ("CCOC(=O)/C=C/[C@H](CCC(N)=O)NC(=O)[C@H](Cc1ccc(F)cc1)n1cccc(NC(=O)C(F)(F)F)c1=O", 8800),
    ("CCOC(=O)/C=C/[C@H](CCC(N)=O)NC(=O)[C@H](Cc1ccccc1)n1cccc(NC(=O)OCc2ccccc2)c1=O", 114000),
    ("CC[C@@H](C(=O)N[C@H](/C=C/C(=O)OC(C)C)C[C@@H]1CCNC1=O)n1cccc(NC(=O)c2cc(C)on2)c1=O", 36000),
    ("C#CC[C@@H](C(=O)N[C@H](/C=C/C(=O)OC(C)(C)C)C[C@@H]1CCNC1=O)n1cccc(NC(=O)c2cc(C)on2)c1=O", 60500),
    ("CCOC(=O)/C=C/[C@H](CCC(N)=O)NC(=O)[C@@H]1CCc2ccc(NC(=O)OCc3ccccc3)c(=O)n21", 4540),
    ("C#CC[C@@H](C(=O)N[C@H](/C=C/C(=O)OC(C)C)C[C@@H]1CCNC1=O)n1cccc(NC(=O)c2cc(C)on2)c1=O", 100000),
    ("CCOC(=O)/C=C/[C@H](CCC(N)=O)NC(=O)[C@H](Cc1ccccc1)n1ccc(C)c(NC(=O)c2cc(C)on2)c1=O", 116000),
    ("CCOC(=O)/C=C/[C@H](CCC(N)=O)NC(=O)[C@H](Cc1ccc(F)cc1)n1cccc(NC(=O)OCc2ccccc2)c1=O", 81000),
    ("CCOC(=O)/C=C/[C@H](C[C@@H]1CCNC1=O)NC(=O)[C@@H](Cc1ccccc1)n1ccc2cc[nH]c2c1=O", 574),
    ("C#CC[C@@H](C(=O)N[C@H](/C=C/C(=O)OC1CCCC1)C[C@@H]1CCNC1=O)n1cccc(NC(=O)c2cc(C)on2)c1=O", 186000),
    ("CCOC(=O)/C=C/[C@H](C[C@H]1CCNC1=O)NC(=O)[C@H](Cc1ccccc1)n1cccc(NC(=O)OCc2ccccc2)c1=O", 6340),
    ("CCOC(=O)/C=C/[C@H](C[C@@H]1CCNC1=O)NC(=O)[C@H](Cc1ccccc1)n1cccc(NC(=O)OCc2ccccc2)c1=O", 380000),
    ("CCOC(=O)/C=C/[C@H](C[C@@H]1CCNC1=O)NC(=O)[C@H](Cc1ccccc1)n1ccc2cc[nH]c2c1=O", 2900),
]

----------
- Tested on: H1-HeLa cells
- Protocol description: Cytotoxicity (CC50) in mock-infected H1-HeLa cells, XTT dye reduction
- Type: cell-based, human
- Conditions used: CVB3
Assay endpoint: CC50

# Compound, Value reported
data = [
    ("Cc1cc(CCCCCOc2c(Cl)cc(C3=NCCO3)cc2Cl)on1 [WIN 54954, reference compound]", "> 100 µM"),
]

----------
- System: H1-HeLa cells
- Protocol description: Cytotoxicity (CC50) in mock-infected H1-HeLa cells, XTT dye reduction
- Assay type: cell-based, human
- Conditions used: line of HRV-39
- Procedure: In this cell protection assay, the ability of compounds to protect cells against HRV infection was measured by the XTT dye reduction method, which is described in Weislow et al., J. Natl. Cancer Inst. […] Two days later, XTT/PMS was added to test plates and the amount of formazan produced was quantified spectrophotometrically at 450/650 nm. […] The therapeutic index (TI) was calculated by dividing the CC50 value by the EC50 value. […]

# Compound, Assayed system, CC50
measured = [
    ("CCOC(=O)/C=C/[C@H](C[C@@H]1CCNC1=O)NC(=O)[C@H](Cc1ccc(F)cc1)n1cccc(NC(=O)c2cc(C)on2)c1=O [Compound 25]", "H1-HeLa cells", "> 10 µM"),
    ("C#CC[C@@H](C(=O)N[C@H](/C=C/C(=O)OC(C)(C)C)C[C@@H]1CCNC1=O)n1cccc(NC(=O)c2cc(C)on2)c1=O [Compound 41]", "H1-HeLa cells", "> 10 µM"),
    ("CCOC(=O)/C=C/[C@H](C[C@@H]1CCNC1=O)NC(=O)[C@H](Cc1ccc(F)c(F)c1)n1cccc(NC(=O)c2cc(C)on2)c1=O [Compound 33]", "H1-HeLa cells", "> 10 µM"),
    ("Cc1cc(C(=O)Nc2cccn(C(Cc3ccc(F)c(F)c3)C(=O)N[C@H](/C=C/C(=O)OCC(C)(C)C)C[C@@H]3CCNC3=O)c2=O)no1 (relative stereo) [Compound 47]", "H1-HeLa cells", "> 10 µM"),
    ("CC[C@@H](C(=O)N[C@H](/C=C/C(=O)OC(C)(C)C)C[C@@H]1CCNC1=O)n1cccc(NC(=O)c2cc(C)on2)c1=O [Compound 34]", "H1-HeLa cells", "> 10 µM"),
    ("Cc1cc(C(=O)Nc2cccn([C@@H](Cc3ccc(F)c(F)c3)C(=O)N[C@H](/C=C/C(=O)OC3CCCC3)C[C@@H]3CCNC3=O)c2=O)no1 [Compound 49]", "H1-HeLa cells", "> 10 µM"),
    ("C#CC[C@@H](C(=O)N[C@H](/C=C(\\C)C(=O)OCC)C[C@@H]1CCNC1=O)n1cccc(NC(=O)c2cc(C)on2)c1=O [Compound 44]", "H1-HeLa cells", "> 10 µM"),
    ("C#CC[C@@H](C(=O)N[C@H](/C=C/C(=O)OCC)C[C@@H]1CCNC1=O)n1cccc(NC(=O)c2cc(C)on2)c1=O [Compound 31]", "H1-HeLa cells", "> 10 µM"),
]
